All values here come from patent US11098077B2.

The entries below are paired with their reported hSTING Tm Shift REF.
- subjectOfTest: hSTING REF allele (Homo sapiens)
- Construct: DNA encoding amino acids 140-379 (amino acid numbering corresponding to Swiss Prot Q86WV6); 6xHIS (N, cleaved yes); SUMO (N, cleaved yes); made in house; host or cells: Rosetta2 (DE3) E. coli
- Sequence (Q86WV6 140-379): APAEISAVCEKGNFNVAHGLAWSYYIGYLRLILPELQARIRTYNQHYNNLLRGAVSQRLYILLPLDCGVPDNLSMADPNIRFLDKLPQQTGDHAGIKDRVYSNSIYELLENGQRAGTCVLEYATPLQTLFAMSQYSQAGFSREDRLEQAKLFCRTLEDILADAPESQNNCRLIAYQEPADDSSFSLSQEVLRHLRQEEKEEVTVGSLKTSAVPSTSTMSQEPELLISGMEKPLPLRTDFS
- experimentSummary: Differential scanning fluorometry (DSF) binding to purified STING AA140-379, REF allele
- testParameters: DSF; ligand 1 mM; 1 mg/ml STING AA140-379
Number only, in °C; omit the unit.

Worked examples follow.
INSERT INTO measurements (molecule, outcomemeasure, assayresult) VALUES
  ('O=C(Nc1ncnc2c1ncn2[C@@H]1O[C@@H]2CO[P@](=O)(S)O[C@H]3[C@H]4OC[C@]3(CO[P@@](=O)(S)O[C@@H]1[C@@H]2O)O[C@H]4n1cnc2c(NC(=O)c3ccccc3)ncnc21)c1ccccc1 [Compound 11e]', 'hSTING Tm Shift REF', 1.2),
  ('CC(C)(C)[Si](C)(C)O[C@H]1[C@H]2O[P@](=O)(S)OC[C@@]34CO[C@@H]([C@H](n5cnc6c(N)ncnc65)O3)[C@@H]4O[P@@](=O)(S)OC[C@H]1O[C@H]2n1cnc2c(N)ncnc21 [Compound 11b]', 'hSTING Tm Shift REF', '−1.5');

Ask: Param request: hSTING Tm Shift REF | system hSTING REF allele (Homo sapiens) | item Nc1ncnc2c1ncn2[C@@H]1O[C@@H]2CO[P@@](=O)(S)O[C@H]3[C@H]4OC[C@]3(CO[P@@](=O)(S)O[C@@H]1[C@H]2F)O[C@H]4n1cnc2c(N)ncnc21 [Compound 37a]
Result: 2.1

Ask: Param request: hSTING Tm Shift REF | system hSTING REF allele (Homo sapiens) | item O=C(Nc1ncnc2c1ncn2[C@@H]1O[C@@]23CO[C@@H]1[C@@H]2O[P@](=O)(S)OC[C@@]12CO[C@@H]([C@H](n4cnc5c(NC(=O)c6ccccc6)ncnc54)O1)[C@@H]2O[P@](=O)(S)OC3)c1ccccc1 [Compound 4a]
Result: 4.4

Ask: Param request: hSTING Tm Shift REF | system hSTING REF allele (Homo sapiens) | item Nc1ncnc2c1ncn2[C@@H]1O[C@@H]2CO[P@](=O)(S)O[C@H]3[C@H]4OC[C@]3(CO[P@@](=O)(S)O[C@@H]1[C@@H]2O)O[C@H]4n1cnc2c(N)ncnc21 [Compound 10b]
Result: 7.4

---

The entries below are paired with their reported hSTING Tm Shift HAQ.
- subjectOfTest: hSTING HAQ allele (Homo sapiens, UniProt Q86WV6, G230A/H232R/R293Q)
- Construct: DNA encoding amino acids 140-379 (amino acid numbering corresponding to Swiss Prot Q86WV6); 6xHIS (N, cleaved yes); SUMO (N, cleaved yes); made in house; host or cells: Rosetta2 (DE3) E. coli
- Sequence (Q86WV6 140-379 G230A/H232R/R293Q limits assumed): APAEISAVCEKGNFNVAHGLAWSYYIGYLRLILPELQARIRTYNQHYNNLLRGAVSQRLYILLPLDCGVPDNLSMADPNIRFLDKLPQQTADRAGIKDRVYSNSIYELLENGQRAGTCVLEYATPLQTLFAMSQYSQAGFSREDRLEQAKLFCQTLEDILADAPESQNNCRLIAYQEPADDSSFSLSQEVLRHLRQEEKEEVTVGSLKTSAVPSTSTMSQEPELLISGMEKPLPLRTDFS
- experimentSummary: Differential scanning fluorometry (DSF) binding to purified STING AA140-379, HAQ allele
- testParameters: ligand 1 mM, 1 mg/ml STING AA140-379
Number only, in °C; omit the unit.

Worked examples follow.
INSERT INTO measurements (compound, assayresult) VALUES
  ('Nc1nc2c(ncn2[C@@H]2O[C@@H]3CO[P@](=O)(S)O[C@H]4[C@H]5OC[C@]4(CO[P@@](=O)(S)O[C@H]3[C@H]2O)O[C@H]5n2cnc3c(N)ncnc32)c(=O)[nH]1 [Compound 45b]', 14.7),
  ('Nc1ncnc2c1ncn2[C@@H]1O[C@@H]2CO[P@@](=O)(S)O[C@H]3[C@H]4OC[C@]3(CO[P@@](=O)(S)O[C@@H]1[C@@H]2F)O[C@H]4n1cnc2c(N)ncnc21 [Compound 27a]', 18.2),
  ('O=C(Nc1ncnc2c1ncn2[C@@H]1O[C@@H]2CO[P@@](=O)(S)O[C@H]3[C@H]4OC[C@]3(CO[P@@](=O)(S)O[C@@H]1[C@@H]2O)O[C@H]4n1cnc2c(NC(=O)c3ccccc3)ncnc21)c1ccccc1 [Compound 11d]', 3.7);

Ask: Check the records and state hSTING Tm Shift HAQ for Nc1ncnc2c1ncn2[C@@H]1O[C@@H]2CO[P@](=O)(S)O[C@H]3[C@H]4OC[C@]3(CO[P@@](=O)(S)O[C@@H]1[C@H]2F)O[C@H]4n1cnc2c(N)ncnc21 [Compound 37b]
Result: 6.8

Ask: Check the records and state hSTING Tm Shift HAQ for O=C(Nc1ncnc2c1ncn2[C@@H]1O[C@@]23CO[C@@H]1[C@@H]2O[P@@](=O)(S)OC[C@@H]1C[C@@H](O[P@](=O)(S)OC3)[C@H](n2cnc3c(NC(=O)c4ccccc4)ncnc32)O1)c1ccccc1 [Compound 22b]
Result: 5.9
